# tested-on: BTK recombinant protein (Homo sapiens (Human))
# Sequence (Q06187 whole entry): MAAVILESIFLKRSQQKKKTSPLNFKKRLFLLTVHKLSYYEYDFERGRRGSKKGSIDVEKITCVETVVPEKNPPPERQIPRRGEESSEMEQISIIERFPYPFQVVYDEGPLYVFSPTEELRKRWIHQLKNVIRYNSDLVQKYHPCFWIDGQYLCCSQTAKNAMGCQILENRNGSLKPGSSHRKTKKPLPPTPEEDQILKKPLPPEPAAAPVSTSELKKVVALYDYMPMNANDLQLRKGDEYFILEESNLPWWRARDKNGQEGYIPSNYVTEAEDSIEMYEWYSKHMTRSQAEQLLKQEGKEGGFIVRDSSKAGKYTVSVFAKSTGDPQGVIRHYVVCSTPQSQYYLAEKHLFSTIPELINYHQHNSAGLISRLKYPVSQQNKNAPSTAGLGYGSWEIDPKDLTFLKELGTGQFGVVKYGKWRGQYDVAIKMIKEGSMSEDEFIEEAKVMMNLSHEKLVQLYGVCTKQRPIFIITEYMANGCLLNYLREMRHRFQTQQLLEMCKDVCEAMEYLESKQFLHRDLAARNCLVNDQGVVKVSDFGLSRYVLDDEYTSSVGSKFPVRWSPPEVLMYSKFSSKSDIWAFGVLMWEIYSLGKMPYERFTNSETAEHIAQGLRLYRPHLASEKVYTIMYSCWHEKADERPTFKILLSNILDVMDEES
# test-protocol: Determination of biochemical BTK (Z'-LYTE kinase assay)
parameter: IC50 (nM)

Examples with answers:
# compound, reported-value
rows = [
    ("Cn1cc(Nc2cc(-c3ccnc(-n4ccn5c6c(cc5c4=O)CCC6)c3CO)cn(C)c2=O)nn1", 216),
    ("C[C@H]1CN(C2COC2)CCN1c1ccc(Nc2cc(-c3ccnc(-n4ccn5c6c(cc5c4=O)CCC6)c3CO)cn(C)c2=O)nc1", 20),
    ("C[C@H]1COCCN1c1ccc(Nc2cc(-c3ccnc(-n4ccn5c6c(cc5c4=O)CC(C)(C)C6)c3CO)cn(C)c2=O)nc1", 18),
    ("Cc1ccc(Nc2cc(-c3ccnc(-n4ccn5c6c(cc5c4=O)CC(C)(C)C6)c3CO)cn(C)c2=O)nn1", 11),
    ("C[C@H]1CN(C2COC2)CCN1c1ccc(Nc2cc(-c3ccnc(-n4ccn5c6c(cc5c4=O)CC(C)(C)[C@H]6O)c3CO)cn(C)c2=O)nc1", 8),
]

P = Cn1cc(-c2ccnc(-n3ccn4c5c(cc4c3=O)CC(C)(C)C5)c2CO)cc(Nc2ccc(N3CCN(C4COC4)CC3(C)C)cn2)c1=O
Q = Cn1cc(-c2ccnc(-n3ncn4c5c(cc4c3=O)CC(C)(C)C5)c2CO)cc(Nc2cc3n(n2)CCN(C2CCC2)C3)c1=O
Query: Field: entry with larger IC50 (options P / Q ). State the label of the item chosen.
Reply: Q
(Q: 18 nM, P: 10 nM)

A = CCn1cc(-c2ccnc(-n3ccn4c5c(cc4c3=O)CC(C)(C)C5)c2CO)cc(Nc2ccc(N3CCN(C4COC4)C[C@@H]3C)cn2)c1=O
B = COCCN(C)c1ccc(Nc2cc(-c3ccnc(-n4ccn5c6c(cc5c4=O)CC(C)(C)C6)c3CO)cn(C)c2=O)nc1
C = CC1c2cc(Nc3cc(-c4ccnc(-n5ccn6c7c(cc6c5=O)CC(C)(C)C7)c4CO)cn(C)c3=O)nn2CCN1C1COC1 (stereo not shown)
D = Cc1cc(Nc2cc(-c3ccnc(-n4ccn5c6c(cc5c4=O)CC(C)(C)C6)c3CO)cn(C)c2=O)ncn1
Query: I would appreciate it if you could sort these 4 compounds by IC50, starting from the smallest number. Output spec: a listing of the labels in the requested order.
Reply: C, A, D, B
(C: 5 nM, A: 8 nM, D: 15 nM, B: 24 nM)

1 = Cn1cc(-c2ccnc(-n3ncn4c5c(cc4c3=O)CC(C)(C)C5)c2CO)cc(Nc2ccc(N3CCN(C4COC4)CC3(C)C)cn2)c1=O
2 = CCn1cc(Nc2cc(-c3ccnc(-n4ccn5c6c(cc5c4=O)CC(C)(C)C6)c3CO)cn3ncnc23)nn1
Query: Of 1 versus 2 , which is the one with smaller reported IC50? Output the label that corresponds to your choice.
Reply: 2

P = C[C@H]1CN(C2COC2)CCN1c1ccc(Nc2cc(-c3ccnc(-n4cnn5c6c(cc5c4=O)CC(C)(C)C6)c3CO)cn(C)c2=O)nc1
Q = CCn1cc(-c2ccnc(-n3ccn4c5c(cc4c3=O)CC(C)(C)C5)c2CO)cc(Nc2ccc(N3C[C@@H](C)N(C4COC4)C[C@@H]3C)cn2)c1=O
R = CN1CCn2nc(Nc3cc(-c4ccnc(-n5ccn6c7c(cc6c5=O)CC(C)(C)C7)c4CO)cn(C)c3=O)cc2C1=O
S = C[C@H]1CN(C2COC2)CCN1c1ccc(Nc2cc(-c3ccnc(-n4ccn5c6c(cc5c4=O)CC(C)(C)[C@@H]6O)c3CO)cn(C)c2=O)nc1
Query: Provide the items ranked by increasing IC50. Lab note: record answer as labels in requested order.
Reply: S, P, R, Q

* * *

# Tested on: B cell activation in rat whole blood
# test-protocol: Determination of B cell activity in whole blood of rats (anti-rat IgD induced B cell activation, flow cytometry)
# Type: cell-based
# experimental-setup: anti-rat immunoglobulin D 10 μg/mL, 18 hours, inhibition of B cell activation
pIC50: −log10 of the molar value.
parameter: pIC50

Below, 4 molecules whose answers are already recorded.
# record-smiles, tested-on, pIC50
records = [
    ("CC1(C)Cc2cc3c(=O)n(-c4nccc(-c5cc(Nc6cc7n(n6)CCNC7)c6ncnn6c5)c4CO)ccn3c2C1", "B cell activation in rat whole blood", 7.59),
    ("C[C@@H]1CN(c2ccc(Nc3cc(-c4ccnc(-n5ccn6c7c(cc6c5=O)CCC7)c4CO)cn(C)c3=O)nc2)[C@@H](C)CN1C1COC1", "B cell activation in rat whole blood", 7.27),
    ("C[C@H]1CN(C2COC2)CCN1c1ccc(Nc2cc(-c3ccnc(-n4cnn5c6c(cc5c4=O)CC(C)(C)C6)c3CO)cn(C)c2=O)nc1", "B cell activation in rat whole blood", 7.36),
    ("Cn1cc(Nc2cc(-c3ccnc(-n4ccn5c6c(cc5c4=O)CC(C)(C)C6)c3CO)cn(C)c2=O)nn1", "B cell activation in rat whole blood", 7.11),
]

P = C[C@@H]1CN(c2ccc(Nc3cc(-c4ccnc(-n5ccn6c(c(F)c7ccccc76)c5=O)c4CO)cn(C)c3=O)nc2)[C@@H](C)CN1C1COC1
Q = C[C@H]1CN(C2COC2)CCN1c1ccc(Nc2nc(-c3ccnc(-n4ccn5c6c(cc5c4=O)CC(C)(C)C6)c3CO)cn(C)c2=O)nc1
Query: Please tell me which of the two, P or Q , has the higher reported pIC50 value. Your answer should be the label attached to the chosen record.
Reply: P

* * *

# tested-on: phosphorylated BTK in Ramos cells (Homo sapiens (Human), UniProt Q06187)
# Sequence (Q06187 whole entry): as above
# test-protocol: Determination of phosphorylated BTK in Ramos cells (BTK phospho-Y223 HTRF)
# experimental-setup: anti-human IgM + hydrogen peroxide stimulation
pIC50: −log10 of the molar value.
parameter: pIC50

The following compounds have reported results that may help.
# compound, reported-value
data = [
    ("COCC(C)N1CCn2nc(Nc3cc(-c4ccnc(-n5ccn6c7c(cc6c5=O)CC(C)(C)C7)c4CO)cn(C)c3=O)cc2C1 (stereo not drawn)", 8.00),
    ("C[C@H]1CN(C2COC2)CCN1c1ccc(Nc2nc(-c3ccnc(-n4ccn5c6c(cc5c4=O)CC(C)(C)C6)c3CO)cn(C)c2=O)nc1", 7.77),
    ("C[C@H]1CN(C)CCN1c1ccc(Nc2cc(-c3ccnc(-n4ccn5c6c(cc5c4=O)CC(C)(C)C6)c3CO)cn(C)c2=O)nc1", 8.15),
    ("C[C@H]1CN(C2COC2)CCN1c1ccc(Nc2cc(-c3ccnc(-n4ccn5c6c(c(Br)c5c4=O)CC(C)(C)C6)c3CO)cn(C)c2=O)nc1", 8.52),
    ("Cc1ccc(Nc2cc(-c3ccnc(-n4ccn5c6c(cc5c4=O)CC(C)(C)C6)c3CO)cn(C)c2=O)nn1", 8.70),
]

a = Cn1cc(-c2ccnc(-n3ccn4c5c(cc4c3=O)CC(C)(C)C5)c2CO)cc(Nc2ccc(N3CCN(C4COC4)CC3)cn2)c1=O
b = CCn1cc(-c2ccnc(-n3ccn4c5c(cc4c3=O)CC(C)(C)C5)c2CO)cc(Nc2ccc(N3C[C@@H](C)N(C4COC4)C[C@@H]3C)cn2)c1=O
c = COc1ccc(Nc2cc(-c3ccnc(-n4ccn5c6c(cc5c4=O)CC(C)(C)C6)c3CO)cn(C)c2=O)nn1
d = Cn1cc(-c2ccnc(-n3ccn4c5c(cc4c3=O)CC(C)(C)C5)c2CO)cc(Nc2cc3n(n2)CCN(C2COC2)C3)c1=O
Query: Give the ascending ranking of the items by reported pIC50. Lab note: record answer as labels in requested order.
Reply: b, c, d, a
(b: 7.29, c: 7.52, d: 8.15, a: 8.40)

* * *

# Tested on: B cell activation in rat whole blood
# test-protocol: Determination of B cell activity in whole blood of rats (anti-rat IgD induced B cell activation, flow cytometry)
# Format: cell-based
# experimental-setup: anti-rat immunoglobulin D 10 μg/mL, 18 hours, inhibition of B cell activation
parameter: IC50 (nM)

Past entries and their recorded results:
# record-smiles, parameter, unit-of-measurement, reported-value
rows = [
    ("C[C@@H]1CN(c2ccc(Nc3cc(-c4ccnc(-n5ccn6c7c(cc6c5=O)CC(C)(C)C7)c4CO)cn(C)c3=O)nc2)[C@@H](C)CN1C1COC1", "IC50", "nM", 5),
    ("C[C@H]1CN(C2COC2)CCN1c1ccc(Nc2cc(-c3ccnc(-n4ccn5c(c(F)c6ccccc65)c4=O)c3CO)cn(C)c2=O)nc1", "IC50", "nM", 21),
    ("CN1CCn2nc(Nc3cc(-c4ccnc(-n5ccn6c7c(cc6c5=O)CC(C)(C)C7)c4CO)cn4ncnc34)cc2C1", "IC50", "nM", 8),
]

a = Cn1cc(-c2ccnc(-n3ccn4c5c(cc4c3=O)CC(C)(C)C5)c2CO)cc(Nc2cn(CCF)nn2)c1=O
b = C[C@H]1CN(C2COC2)CCN1c1ccc(Nc2cc(-c3ccnc(-n4ccn5c6c(cc5c4=O)CC(F)(F)CC6)c3CO)cn(C)c2=O)nc1
Query: Of a and b , whose reported IC50 is numerically smaller? Returns: label corresponding to the selected item.
Reply: b
